This collection of values is drawn from patent US20120010075A1.

TEST_READOUT: melting point

Previously resolved entries follow.
                               given_smiles   test_readout    test_result
0       C/C(=N\NC(=O)c1ccccc1)c1ccc(Cl)cc1O  melting point  236 to 237 °C
1  O=C(N/N=C/c1cc(C(F)(F)F)cc(C(F)(F)F)c1O)c1ccc(F)cc1  melting point  226 to 228 °C
2  Cc1cccc(C(=O)N/N=C/c2cc(Cl)cc(Cl)c2O)c1O  melting point  202 to 209 °C

I have this compound here, C/C(=N\NC(=O)c1ccc(Cl)cc1)c1cccc(Cl)c1O , and I need its recorded melting point. 208 to 209 °C

Report melting point for C/C(=N\NC(=O)c1cccc(Cl)c1)c1cc(Br)ccc1O please. 235 to 240 °C

Reported melting point, compound O=C(N/N=C/c1cc(Br)cc(Br)c1O)c1cc(I)ccc1Cl : ____ 205 to 212 °C
